The reported measurements were obtained from patent US4595678A.

# measurement target: maltase (porcine intestinal mucosa)
# test details: Glucosidase inhibitory activity, maltase (maltose as substrate)
# Type: biochemical
# protocol conditions: read-out: IC50 (maltase), 50% inhibition concentration, pH 6.8, 37° C., 10 minutes
Define the label as Condition met when IC50 is strictly less than 1000 nM and as Condition not met in all remaining cases.

Please review the following examples before continuing.
compound: CO[C@H]1O[C@H](CO)[C@@H](N[C@H]2C[C@](O)(CO)[C@@H](O)[C@H](O)[C@H]2O)[C@H](O)[C@H]1O [Example 4, Glucopyranoside isomer]
measurement target: maltase (porcine intestinal mucosa)
category: Condition met
//
compound: C[C@H]1O[C@H](O[C@H]2[C@H](O)[C@@H](O)C(O)O[C@@H]2CO)[C@H](O)[C@@H](O)[C@@H]1N[C@H]1C[C@](O)(CO)[C@@H](O)[C@H](O)[C@H]1O (stereo partly drawn) [Example 28]
measurement target: maltase (porcine intestinal mucosa)
category: Condition met
//
compound: OC[C@H]1C[C@H](NC2[C@@H](O)C(O)O[C@H](CO)[C@H]2O)[C@H](O)[C@@H](O)[C@@H]1O (stereo partly drawn)
measurement target: maltase (porcine intestinal mucosa)
category: Condition not met
//
compound: N[C@H]1C[C@H](CO)C(N[C@H]2C[C@H](CO)[C@@H](O)[C@H](O)[C@H]2O)[C@H](O)[C@H]1O (single isomer, unassigned) [Example 6, first eluted isomer]
measurement target: maltase (porcine intestinal mucosa)
category: Condition not met

Now turn to the next compound.
Consider the compound CO[C@H]1O[C@H](C)[C@@H](N[C@H]2C[C@H](CO)[C@@H](O)[C@H](O)[C@H]2O)[C@H](O)[C@H]1O [Example 1,6-deoxyglucopyranoside isomer] . Is its IC50 strictly less than 1000 nM?
Condition not met

----------
# measurement target: saccharase (porcine intestinal mucosa) (Sus scrofa)
# Construct: prepared from porcine intestinal mucosa; from tissue; host or cells: porcine intestinal mucosa
# test details: Glucosidase inhibitory activity, saccharase (sucrose as substrate)
# Type: biochemical
# protocol conditions: pH 6.8, 37° C., 10 minutes
readout label: pIC50
Quick note: pIC50 means taking -log10 of the concentration in moles per liter.

// solved cases for pIC50 follow
compound: C[C@H]1C[C@H](N)[C@H](O)[C@@H](O)[C@H]1N[C@H]1C[C@](O)(CO)[C@@H](O)[C@H](O)[C@H]1O [Example 20, isomer (b)]
pIC50: 7.28
//
compound: CO[C@H]1O[C@H](CO)[C@H](N[C@H]2C[C@H](CO)[C@@H](O)[C@H](O)[C@H]2O)[C@H](O)[C@H]1O [Example 3, Galactopyranoside isomer]
pIC50: 6.00
//
compound: CO[C@H]1O[C@H](CO)[C@@H](N[C@H]2C[C@](O)(CO)[C@@H](O)[C@H](O)[C@H]2O)[C@H](O)[C@H]1O [Example 4, Glucopyranoside isomer]
pIC50: 7.10
//
compound: CC1(O)CC(N)C(O)C(O)C1O (stereo not drawn)
pIC50: 4.62

Please give the measured pIC50 for this compound: OC[C@H]1C[C@@H](N[C@H]2C[C@](O)(CO)[C@@H](O)[C@H](O)[C@H]2O)[C@H](O)[C@@H](O)[C@@H]1O [Example 18, (1R,2S) isomer]
7.32

What pIC50 value was documented for this compound, OC[C@H]1C[C@H](N[C@H]2C[C@](O)(CO)[C@@H](O)[C@H](O)[C@H]2O)[C@H](O)[C@@H](O)[C@@H]1O [Example 18, (1S,2S) isomer] ?
5.25

----------
Here, each record is paired with measured pIC50 data.
# measurement target: saccharase (porcine intestinal mucosa) (Sus scrofa)
# Construct: prepared from porcine intestinal mucosa; from tissue; host or cells: porcine intestinal mucosa
# test details: Glucosidase inhibitory activity, saccharase (sucrose as substrate)
# Type: biochemical
# protocol conditions: read-out: IC50 (saccharase), 50% inhibition concentration, pH 6.8, 37° C., 10 minutes
Schema: pIC50 number; meaning minus log10 of the concentration expressed in molar units.

molecule: OC[C@H]1OC(O)[C@H](O)C(N[C@H]2C[C@](O)(CO)[C@@H](O)[C@H](O)[C@H]2O)[C@@H]1O (stereo partly shown)
measurement target: saccharase (porcine intestinal mucosa) (Sus scrofa)
pIC50: 7.05
//
molecule: OCC1=C[C@H](NC2[C@@H](O)C(O)O[C@H](CO)[C@H]2O)[C@H](O)[C@@H](O)[C@@H]1O (stereo partly shown)
measurement target: saccharase (porcine intestinal mucosa) (Sus scrofa)
pIC50: 6.35
//
molecule: NC1CC(N)C(N[C@H]2C[C@](O)(CO)[C@@H](O)[C@H](O)[C@H]2O)C(O)C1O (single isomer, unassigned) [Example 12, Isomer D]
measurement target: saccharase (porcine intestinal mucosa) (Sus scrofa)
pIC50: 7.06

Looking for the measured pIC50 of OC[C@H]1C[C@H](NC2[C@@H](O)C(O)O[C@H](CO)[C@H]2O)[C@H](O)[C@@H](O)[C@@H]1O (stereo partly shown) , can you help?
6.77

----------
# measurement target: saccharase (porcine intestinal mucosa) (Sus scrofa, UniProt P56729)
# Construct: prepared from porcine intestinal mucosa; from tissue; host or cells: porcine intestinal mucosa
# Sequence (P56729 with tags, fused parts or gaps limits assumed): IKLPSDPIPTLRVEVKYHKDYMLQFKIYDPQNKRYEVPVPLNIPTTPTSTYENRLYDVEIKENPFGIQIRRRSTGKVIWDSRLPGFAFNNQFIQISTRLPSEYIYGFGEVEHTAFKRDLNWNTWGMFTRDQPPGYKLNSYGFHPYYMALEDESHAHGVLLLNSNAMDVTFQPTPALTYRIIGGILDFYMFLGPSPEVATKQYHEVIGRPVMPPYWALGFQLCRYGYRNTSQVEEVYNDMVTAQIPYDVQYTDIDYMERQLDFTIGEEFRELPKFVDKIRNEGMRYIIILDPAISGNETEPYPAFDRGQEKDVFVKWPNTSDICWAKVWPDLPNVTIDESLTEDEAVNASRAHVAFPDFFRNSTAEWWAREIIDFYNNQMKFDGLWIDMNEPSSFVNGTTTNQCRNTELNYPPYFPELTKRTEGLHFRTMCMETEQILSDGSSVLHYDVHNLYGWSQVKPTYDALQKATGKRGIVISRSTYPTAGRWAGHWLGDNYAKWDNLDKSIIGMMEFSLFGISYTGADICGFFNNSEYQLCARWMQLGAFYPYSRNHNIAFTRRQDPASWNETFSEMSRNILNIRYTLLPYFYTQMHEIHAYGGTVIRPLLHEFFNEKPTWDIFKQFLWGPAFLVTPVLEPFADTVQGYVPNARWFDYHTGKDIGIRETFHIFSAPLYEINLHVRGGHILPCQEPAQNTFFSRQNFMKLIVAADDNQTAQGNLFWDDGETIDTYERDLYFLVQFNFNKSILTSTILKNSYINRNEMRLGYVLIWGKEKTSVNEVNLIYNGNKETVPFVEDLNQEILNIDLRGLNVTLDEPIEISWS
# Sequence (P56729 with tags, fused parts or gaps partner limits assumed): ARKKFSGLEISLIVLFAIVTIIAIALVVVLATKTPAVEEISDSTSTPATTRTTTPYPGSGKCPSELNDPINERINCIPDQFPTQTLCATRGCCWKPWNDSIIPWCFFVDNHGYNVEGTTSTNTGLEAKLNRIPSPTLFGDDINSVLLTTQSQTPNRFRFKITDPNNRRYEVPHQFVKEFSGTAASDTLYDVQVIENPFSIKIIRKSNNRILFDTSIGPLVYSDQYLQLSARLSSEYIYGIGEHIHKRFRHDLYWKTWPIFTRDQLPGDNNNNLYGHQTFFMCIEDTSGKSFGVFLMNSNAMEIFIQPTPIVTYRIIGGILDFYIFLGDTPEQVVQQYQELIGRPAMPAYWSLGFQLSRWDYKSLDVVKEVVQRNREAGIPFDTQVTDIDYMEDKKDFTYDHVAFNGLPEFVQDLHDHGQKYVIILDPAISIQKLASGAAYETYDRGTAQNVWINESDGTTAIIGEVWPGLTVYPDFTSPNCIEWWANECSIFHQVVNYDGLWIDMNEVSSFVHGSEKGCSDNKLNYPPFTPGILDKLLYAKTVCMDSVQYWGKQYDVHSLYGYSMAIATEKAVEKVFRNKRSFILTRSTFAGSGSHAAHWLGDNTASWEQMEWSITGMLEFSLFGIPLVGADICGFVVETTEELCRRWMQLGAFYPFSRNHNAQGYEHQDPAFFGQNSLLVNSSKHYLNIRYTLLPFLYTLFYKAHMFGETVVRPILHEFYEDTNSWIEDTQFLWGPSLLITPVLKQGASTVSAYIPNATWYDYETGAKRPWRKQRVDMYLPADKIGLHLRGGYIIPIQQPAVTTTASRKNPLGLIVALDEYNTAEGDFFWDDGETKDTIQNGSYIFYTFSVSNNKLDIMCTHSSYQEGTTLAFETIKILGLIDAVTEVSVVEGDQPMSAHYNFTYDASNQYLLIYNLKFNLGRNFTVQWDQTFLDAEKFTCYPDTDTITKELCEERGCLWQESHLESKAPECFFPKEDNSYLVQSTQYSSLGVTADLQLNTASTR
# test details: Glucosidase inhibitory activity, saccharase (sucrose as substrate)
# Format: biochemical
# protocol conditions: pH 6.8, 37° C., 10 minutes
# Excerpt: The method of assaying the glucosidase inhibitory activity. […]
Consider the following compounds and their measured pIC50 readings.
The scale used: pIC50 is minus the common logarithm of the concentration in molar units.

compound: CO[C@H]1O[C@H](C)[C@H](N[C@H]2C[C@H](CO)[C@@H](O)[C@H](O)[C@H]2O)[C@H](O)[C@H]1O [Example 1,6-deoxygalactopyranoside isomer]
pIC50: 5.25
--
compound: C[C@H]1O[C@H](O[C@H]2[C@H](O)[C@@H](O)[C@@H]3OC[C@H]2O3)[C@H](O)[C@@H](O)[C@@H]1N[C@H]1C[C@](O)(CO)[C@@H](O)[C@H](O)[C@H]1O [Example 25, isomer (b)]
pIC50: 7.60

Bench note: what pIC50 did CO[C@H]1O[C@H](CO)[C@H](N[C@H]2C[C@](O)(CO)[C@@H](O)[C@H](O)[C@H]2O)[C@H](O)[C@H]1O [Example 4, Galactopyranoside isomer] show?
6.21

Sample CO[C@H]1O[C@H](C)[C@@H](N[C@H]2C=C(CO)[C@@H](O)[C@H](O)[C@H]2O)[C@H](O)[C@H]1O [Reference Example 40,6-deoxyglucopyranoside isomer] — what was its pIC50?
6.15

Value lookup for pIC50; key = C[C@H]1O[C@H](O[C@H]2[C@H](O)[C@@H](O)C(O)O[C@@H]2CO)[C@H](O)[C@@H](O)[C@@H]1N[C@H]1C[C@](O)(CO)[C@@H](O)[C@H](O)[C@H]1O (some centres unmarked)
7.10

----------
# measurement target: saccharase (porcine intestinal mucosa) (Sus scrofa, UniProt P56729)
# Construct: prepared from porcine intestinal mucosa; from tissue; host or cells: porcine intestinal mucosa
# test details: Glucosidase inhibitory activity, saccharase (sucrose as substrate)
# Format: biochemical
# protocol conditions: read-out: IC50 (saccharase), 50% inhibition concentration, pH 6.8, 37° C., 10 minutes
# Source text: The method of assaying the glucosidase inhibitory activity. […]
readout label: pIC50
Answer as the number alone; pIC50 is minus log10 of concentration in mol/L.

Observe how each entry below is paired with its result.
compound: N[C@H]1C[C@H](CO)C(N[C@H]2C[C@](O)(CO)[C@@H](O)[C@H](O)[C@H]2O)[C@H](O)[C@H]1O (single isomer, unassigned) [Example 8,4-amino derivative from the later eluted component of Example 7]
readout label: pIC50
quantitative readout: 6.64

compound: CC1(C)O[C@H]2O[C@H]([C@H](O)CO)C(N[C@H]3C[C@](O)(CO)[C@@H](O)[C@H](O)[C@H]3O)[C@H]2O1 (stereo partly drawn)
readout label: pIC50
quantitative readout: 4.43

compound: C[C@H]1CC(O)[C@H](O)[C@@H](O)[C@@H]1N[C@H]1C[C@](O)(CO)[C@@H](O)[C@H](O)[C@H]1O (single isomer, unassigned) [Example 21, isomer (a)]
readout label: pIC50
quantitative readout: 7.46

compound: N[C@H]1C[C@H](CO)C(N[C@H]2C[C@H](CO)[C@@H](O)[C@H](O)[C@H]2O)[C@H](O)[C@H]1O (single isomer, unassigned) [Example 6, first eluted isomer]
readout label: pIC50
quantitative readout: 5.80

Report pIC50 for C[C@H]1CC(O)[C@H](O)[C@@H](O)[C@@H]1N[C@H]1C[C@](O)(CO)[C@@H](O)[C@H](O)[C@H]1O (single isomer, unassigned) [Example 21, isomer (b)] please.
7.44

For CCOC(=O)NC1CC(NC(=O)OCC)C(N[C@H]2C[C@](O)(CO)[C@@H](O)[C@H](O)[C@H]2O)C(O)C1O (stereo partly drawn) , what is its reported pIC50?
5.31

Fill blank: measured pIC50 of the compound NC1CC(N)C(N[C@H]2C[C@H](CO)[C@@H](O)[C@H](O)[C@H]2O)C(O)C1O (stereo partly drawn) is ____.
6.06

// pIC50 lookup, key: N[C@H]1C[C@H](CO)C(N[C@H]2C[C@](O)(CO)[C@@H](O)[C@H](O)[C@H]2O)[C@H](O)[C@H]1O (single isomer, unassigned) [Example 8,4-amino derivative from the first eluted component of Example 7]
6.60

Looking for the measured pIC50 of N[C@H]1C[C@H](CO)C(N[C@H]2C[C@H](CO)[C@@H](O)[C@H](O)[C@H]2O)[C@H](O)[C@H]1O (single isomer, unassigned) [Example 6, later eluted isomer] , can you help?
4.11
